# TARGET ENTITY: hMC4R (Homo sapiens (Human), UniProt P32245)
# Sequence (P32245 whole entry): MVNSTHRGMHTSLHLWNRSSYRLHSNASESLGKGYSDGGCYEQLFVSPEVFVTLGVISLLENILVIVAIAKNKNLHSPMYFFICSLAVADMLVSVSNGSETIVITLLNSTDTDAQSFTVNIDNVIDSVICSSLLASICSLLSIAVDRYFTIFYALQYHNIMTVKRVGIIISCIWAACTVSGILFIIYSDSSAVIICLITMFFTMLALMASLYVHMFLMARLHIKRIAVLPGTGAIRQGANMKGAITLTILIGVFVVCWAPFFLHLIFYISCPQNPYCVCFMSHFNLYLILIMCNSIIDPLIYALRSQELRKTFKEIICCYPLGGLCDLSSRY
# EXPERIMENT SUMMARY: In vitro binding affinity assay using hMC4R (radioligand competition binding, CHO cell membranes)
# EXPERIMENTAL SETUP: competition with [125I]-(Nle4, D-Phe7)-α-MSH 0.5 nM; Ki from IC50 by Cheng-Prusoff; read-out: Ki (nM) geometric mean
Please go through the items and note down their Ki.
Give bare numbers, in nM.

1) COc1cc([C@@H](C)C(=O)N2CC[C@H](Nc3ccc(-c4nc(C(F)(F)F)n(C)n4)c(C)n3)C2)c(Cl)cn1 (single isomer, unassigned) [Example 25B]    0.49

Entry under test: Cc1nc(N[C@H]2CCN(C(=O)[C@H](F)c3ccccc3)C2)ccc1-c1cn(C)cn1 (single isomer, unassigned) [Example 13B] . Its Ki was 0.34

====

Please go through the items and note down their Ki.
# TARGET ENTITY: hMC4R (Homo sapiens (Human), UniProt P32245)
# EXPERIMENT SUMMARY: In vitro binding affinity assay using hMC4R (radioligand competition binding, CHO cell membranes)
# EXPERIMENTAL SETUP: competition with [125I]-(Nle4, D-Phe7)-α-MSH 0.5 nM; Ki from IC50 by Cheng-Prusoff; read-out: Ki (nM) geometric mean
One number for each entry, in nM.

// known answers, use as guide
1. COc1cc([C@@H](C)C(=O)N2CC[C@H](Nc3ccc(-c4nc(C(F)(F)F)n(C)n4)c(C)n3)C2)c(Cl)cn1 (single isomer, unassigned) [Example 25A]    88
2. Cc1nc(N[C@H]2CCN(C(=O)Cc3ccc(F)cc3)C2)ccc1-c1nc2n(n1)CC(F)(F)CO2 [Example 29]    6.9
3. COc1cc([C@@H](C)C(=O)N2CC[C@H](Nc3ccc(-c4nc(C(F)F)n(C)n4)c(C)n3)C2)c(Cl)cn1 (single isomer, unassigned) [Example 24B]    0.49
4. COc1cc([C@@H](C)C(=O)N2CC[C@H](Nc3ccc(-c4cn(C)c(C(F)F)n4)c(C)n3)C2)c(F)cn1 (single isomer, unassigned) [Example 38B]    0.31
5. COc1cc(OC(F)F)cc([C@@H](C)C(=O)N2CC[C@H](Nc3ccc(-c4ncccn4)c(C)n3)C2)c1 (single isomer, unassigned) [Example 44B]    0.77

Entry under test: Cc1nc(N[C@H]2CCN(C(=O)Cc3ccc(OC(F)(F)F)cc3)C2)ccc1-c1cn(C)c(C(F)F)n1 [Example 9] . Its Ki was 0.46

====

# TARGET ENTITY: human Melanocortin-4 receptor (MC4R) (Homo sapiens (Human), UniProt P32245)
# EXPERIMENT SUMMARY: Functional in vitro MC4R antagonist potency assay (intracellular cAMP, HTRF, CHO cells)
# Format: cell-based
# EXPERIMENTAL SETUP: cAMP after EC80 agonist stimulation (200 nM αMSH); Kb from IC50 by Leff-Dougall equation; read-out: Kb (nM) Antagonist geometric mean
Please go through the items and note down their Kb.

1) COc1cc(OC(F)F)cc([C@@H](C)C(=O)N2CC[C@H](Nc3ccc(-c4ncccn4)c(C)n3)C2)c1 (single isomer, unassigned) [Example 44A]    > 97 nM
2) COc1cc([C@@H](C)C(=O)N2CC[C@H](Nc3ccc(-c4ncccn4)c(C)n3)C2)c(C)cn1 (single isomer, unassigned) [Example 22A]    > 110 nM

Let us examine a further case.
Entry under test: COc1cc([C@@H](C)C(=O)N2CC[C@H](Nc3ccc(-c4nnn(C)n4)c(C)n3)C2)c(C)cn1 (single isomer, unassigned) [Example 26A] . Its Kb was > 150 nM
